system_tested: human 5-HT2c receptor (Homo sapiens, UniProt P28335)
Construct: expressed in transfected cells
assay: 5-HT2c receptor affinity assay (displacement of 3H-labelled 5-HT, Scintillation Proximity Assay)
Format: binding
reported_conditions: membranes from transfected HEK293 cells expressing human 5-HT2c receptor; 3H-5-HT radioligand; read-out: 5-HT2C receptor Affinity Ki
Procedure: The 5-HT2c receptor affinity of compounds in the Examples was determined in competition experiments, where the ability of each compound in serial dilution to displace ^3H-labelledlabeled 5-HT, bound to membranes prepared from a transfected HEK293 cell line stably expressing the human 5-HT2c receptor protein, was monitored by Scintillation Proximity Assay technology. Non-specific binding was defined using 5 μM mianserin.
quantity: Ki (nM)
// units = nM; emit number, no label

# return Ki of FC(F)(F)c1ccc(N2CCNCC2)nc1OCCOc1cccc2cccnc12 (system: human 5-HT2c receptor (Homo sapiens, UniProt P28335))
246

# return Ki of C[C@H]1CN(c2ccc(C(F)(F)F)c(SCc3ccccc3Cl)n2)CCN1 [Example 38, acetate] (system: human 5-HT2c receptor (Homo sapiens, UniProt P28335))
6

---

system_tested: human 5-HT2c receptor (Homo sapiens, UniProt P28335)
Construct: expressed in transfected cells
Sequence (P28335 33-458): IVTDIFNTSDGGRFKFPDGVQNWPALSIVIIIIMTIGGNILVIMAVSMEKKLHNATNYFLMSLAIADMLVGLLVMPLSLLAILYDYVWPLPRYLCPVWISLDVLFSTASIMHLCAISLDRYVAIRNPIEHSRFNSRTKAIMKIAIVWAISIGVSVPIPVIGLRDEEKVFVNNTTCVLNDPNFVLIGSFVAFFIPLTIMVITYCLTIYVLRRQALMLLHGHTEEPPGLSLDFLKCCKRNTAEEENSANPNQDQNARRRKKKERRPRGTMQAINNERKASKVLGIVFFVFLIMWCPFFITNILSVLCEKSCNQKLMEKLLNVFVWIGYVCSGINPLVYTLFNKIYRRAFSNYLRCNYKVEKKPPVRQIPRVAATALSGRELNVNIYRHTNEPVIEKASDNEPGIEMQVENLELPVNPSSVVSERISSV
assay: 5-HT2c receptor affinity assay (displacement of 3H-labelled 5-HT, Scintillation Proximity Assay)
Format: binding
quantity: pKi
Formally, pKi is defined as -log10 of the concentration c, with c in mol/L.

Consider the compound CCSc1nc(N2CCNC[C@H]2C)ccc1C(F)(F)F [Example 30, acetate] . State its measured pKi.
7.62

Consider the compound COc1ccc(F)cc1COc1nc(N2CCNCC2)ccc1C(F)(F)F [Example 36, acetate] . State its measured pKi.
8.30

Consider the compound CCSc1nc(N2CCNCC2)ccc1C(F)(F)F [Example 17, acetate] . State its measured pKi.
7.82

Consider the compound FC(F)(F)c1ccc(N2CCNCC2)nc1OCc1ccco1 [Example 25, acetate] . State its measured pKi.
7.85

Consider the compound FC(F)(F)c1ccc(N2CCNCC2)nc1SCc1ccccc1Cl [Example 15, acetate] . State its measured pKi.
9.00
